For each entry below, report its CC50 at 24 h value.
# ASSAY_NAME: Cell viability (MTT) assay in Vero cells
# Type: cell-based
# CONDITION: African green monkey

Consider the compound shown here: CO[C@H]1/C=C/O[C@@]2(C)Oc3c(C)c(O)c4c(O)c(c(/C=N/N5CCN(C)CC5)c(O)c4c3C2=O)NC(=O)/C(C)=C\C=C\[C@H](C)[C@H](O)[C@@H](C)[C@@H](O)[C@@H](C)[C@H](OC(C)=O)[C@@H]1C [Rifampicin] What is its recorded CC50 at 24 h?
400 µg/mL

Consider the compound shown here: CO[C@@H]1[C@@H](OC(N)=O)[C@@H](O)[C@H](Oc2ccc3c(O)c(NC(=O)c4ccc(O)c(CC=C(C)C)c4)c(=O)oc3c2C)OC1(C)C [Novobiocin] What is its recorded CC50 at 24 h?
850 µg/mL

====

# ASSAY_NAME: Cell viability (MTT) assay in Huh-7 cells
# Assay type: cell-based
# CONDITION: human
For each entry below, report its CC50 at 24 h value.
Report the figure in mg/L without appending any unit label.

Consider the compound shown here: `CO[C@@H]1[C@@H](OC(N)=O)[C@@H](O)[C@H](Oc2ccc3c(O)c(NC(=O)c4ccc(O)c(CC=C(C)C)c4)c(=O)oc3c2C)OC1(C)C` What is its recorded CC50 at 24 h?
1100

Consider the compound shown here: `CO[C@H]1/C=C/O[C@@]2(C)Oc3c(C)c(O)c4c(O)c(c(/C=N/N5CCN(C)CC5)c(O)c4c3C2=O)NC(=O)/C(C)=C\C=C\[C@H](C)[C@H](O)[C@@H](C)[C@@H](O)[C@@H](C)[C@H](OC(C)=O)[C@@H]1C` What is its recorded CC50 at 24 h?
400

These measurements were taken from patent US11517581B2.
